Reference source: patent US5128398A

This section presents molecules with their documented Solubility in n-Hexane values.
test-description: Solubility in hydrocarbon solvents at 20° C.
Type: physicochemical
condition-context: n-hexane
Report as a plain number; the unit g/100 g solvent is understood.

molecule: C=CC(=O)Oc1c(Cc2cc(C)cc(C(C)(C)C)c2O)cc(C)cc1C(C)(C)C
units-label: g/100 g solvent
Solubility in n-Hexane: 1.5

molecule: C=CC(=O)Oc1c(C(C)c2cc(C(C)(C)C)cc(C(C)(C)C)c2O)cc(C(C)(C)C)cc1C(C)(C)C (stereo not shown)
units-label: g/100 g solvent
Solubility in n-Hexane: 1.1

molecule: C=CC(=O)Oc1c(C(C)c2cc(C(C)(C)CC)cc(C(C)(C)CC)c2O)cc(C(C)(C)CC)cc1C(C)(C)CC (stereo not shown)
units-label: g/100 g solvent
Solubility in n-Hexane: 55

Note to self: Solubility in n-Hexane recorded for C=C(C)C(=O)Oc1c(C(C)c2cc(C(C)(C)CC)cc(C(C)(C)CC)c2O)cc(C(C)(C)CC)cc1C(C)(C)CC (stereo not shown) was 65

---

test-description: Solubility in hydrocarbon solvents at 20° C.
Assay type: physicochemical
condition-context: cyclohexane
Excerpt: Solubility in hydrocarbon solvents was examined for the compounds II-1 and II-2 of the present invention and for the compounds AO-1 and AO-2 which are structurally similar to the compounds of the present invention. The hydrocarbon solvents used were n-hexane and cyclohexane. (g/100 g solvent)
Recorded measurements of Solubility in Cyclohexane, one per entry
Write the answer as a number in g/100 g solvent, unit excluded.

Completed entries (count: 3):
compound: C=CC(=O)Oc1c(C(C)c2cc(C(C)(C)C)cc(C(C)(C)C)c2O)cc(C(C)(C)C)cc1C(C)(C)C (stereo not shown) [AO-2]
Solubility in Cyclohexane, g/100 g solvent: 2.4
--
compound: C=C(C)C(=O)Oc1c(C(C)c2cc(C(C)(C)CC)cc(C(C)(C)CC)c2O)cc(C(C)(C)CC)cc1C(C)(C)CC (stereo not shown) [II-2]
Solubility in Cyclohexane, g/100 g solvent: 108
--
compound: C=CC(=O)Oc1c(Cc2cc(C)cc(C(C)(C)C)c2O)cc(C)cc1C(C)(C)C [AO-1]
Solubility in Cyclohexane, g/100 g solvent: 4.0

Consider the additional compound presented here.
Noted for C=CC(=O)Oc1c(C(C)c2cc(C(C)(C)CC)cc(C(C)(C)CC)c2O)cc(C(C)(C)CC)cc1C(C)(C)CC (stereo not shown) [II-1] : its Solubility in Cyclohexane reads 89
